All values here come from PubChem BioAssay (NCI).

Tested on: M14 melanoma
Assay: NCI-60 one-dose screen, 48 h (100 = growth as untreated, 0 = no growth, -100 = all killed)
Settings: 10 µM unless noted
Compounds without any hit were thinned out: in the full panel of roughly 83,000, 20% have a hit. Active and inactive are the calls of the source. How the source made its calls: active means growth percent below 10; inactive means the rest.
Listed here: items and their measured growth.

Worked set:
C/C(CC1(O)C(=O)Nc2ccccc21)=N\O (centres undefined) ... 97.9% (inactive)
C/C(=N\NC(=O)/C=C/CC(=O)O)c1nnn(-c2ccc([N+](=O)[O-])cc2)c1C ... 103% (inactive)

From here, focus on the item given below.
Item `Cc1ccc2c(n1)C(=O)C(Cl)=C(Nc1ccc(C#N)cc1)C2=O` with M14 melanoma - growth?
86.2% (inactive)

----------
Test system: NCI-H226 lung
Assay: NCI-60 one-dose screen, 48 h
Settings: 10 µM unless noted
About 83,000 compounds went through this panel and 20% of them were active in at least one assay; those are over-represented in the sample as a whole. Activity calls are given as the source filed them. How the source made its calls: active means growth percent below 10; inactive means the rest.
// allowed return values: true (active), false (inactive)

Answered examples (2):
COc1ccc(CC(C)=C(c2ccc(OCCN3CCCC3)cc2)c2ccc(OCCN3CCCC3)cc2)cc1 ... true
CC(=O)OC[C@]12CC[C@@H](C(=O)/C=C/c3cccnc3)[C@@H]1[C@H]1CC[C@@H]3[C@@]4(C)CC[C@H](OC(C)=O)C(C)(C)[C@@H]4CC[C@@]3(C)[C@]1(C)CC2 ... true

Would you mind telling me which call this test gave `C/C(=N\NC(=O)/C=C/CC(=O)O)c1nnn(-c2ccc([N+](=O)[O-])cc2)c1C` ?
false

Would you mind telling me which call this test gave CCCCCN1C(=O)/C(=c2\sc3n(c2=O)C2C(NN=3)N(CC)C(=O)N2CC)c2cccc(C)c21 (stereo not drawn) ?
false

Would you mind telling me which call this test gave `C#CCN(C)CCCOc1ccc(NC(=O)CCCCCCC(=O)NO)cc1Cl` ?
false

Would you mind telling me which call this test gave `O=C1/C(=C/c2cc(F)cc(F)c2)Cc2cc3c(cc21)OCO3` ?
false

Would you mind telling me which call this test gave `COc1ccc([C@@H]2C(=O)N(c3cc(OC)c(OC)c(OC)c3)[C@H]2c2ccc(OC)c(O)c2)cc1` ?
false

Would you mind telling me which call this test gave `C#CCOc1cccc(-c2nc(N)nc(Nc3ccccc3SSc3ccccc3Nc3nc(N)nc(-c4cccc(OCC#C)c4)n3)n2)c1` ?
true

----------
Tested on: SK-MEL-2 melanoma
Assay: NCI-60 one-dose screen, 48 h
Conditions: 10 µM unless noted
About 83,000 compounds went through this panel and 20% of them were active in at least one assay; those are over-represented in the sample as a whole. Active and inactive are the calls of the source. Rule for the calls: active = growth percent below 10; inactive = the rest.
// allowed return values: active, inactive

Answered examples (5):
O=C(CSc1nc2ccccc2c(=O)n1-c1ccccc1)Nc1ccc(S(=O)(=O)Nc2nccs2)cc1 ... inactive
O=[N+]([O-])c1ccc(NC(=S)NNC(=S)Nc2ccc(F)cc2)cc1 ... inactive
Oc1[nH]c2ccc(Cl)cc2c1N=Nc1nc(N=Nc2c(O)[nH]c3ccc(Cl)cc23)nc(N2CCOCC2)n1 ... inactive
C(=N\Nc1nc(N/N=C/c2ccc3c(c2)OCO3)nc(N2CCCCC2)n1)/c1ccc2c(c1)OCO2 ... inactive
CCOC(=O)c1cnc2c(-c3ccc(Cl)c(Cl)c3)cnn2c1 ... inactive

Turning now to a further molecule:
Would you mind telling me which call this test gave `COc1ccc(/C=N/NC(=O)c2c(N)nn(C)c2Nc2ccccc2)cc1` ?
active

----------
Test system: SK-MEL-2 melanoma
Assay: NCI-60 one-dose screen, 48 h
Details: 10 µM unless noted
The panel holds about 83,000 compounds, 20% with a hit somewhere; the sample as a whole holds those more often. Calls of active or inactive are those of the source. Rule for the calls: active = growth percent below 10; inactive = the rest.
// allowed return values: active, inactive

Cc1ccc(NC(=O)/C=C/c2ccc(OCCCOc3ccc4c(C)cc(=O)oc4c3)cc2)cc1 ... inactive
O=C(CSc1nc2ccccc2c(=O)n1-c1ccc(S(=O)(=O)Nc2ccc(Cl)nn2)cc1)Nc1ccc(S(=O)(=O)Nc2ccc(Cl)nn2)cc1 ... inactive

Would you mind telling me which call this test gave `N#C/C(=C\c1ccc(-c2ccc(Cl)cc2)o1)C(=O)Nc1ncc(Cc2ccc(Br)cc2)s1` ?
inactive

Would you mind telling me which call this test gave `CCN(CC)c1ccc(/C=N/NC(=O)c2ccc(S(N)(=O)=O)cc2)c(O)c1` ?
inactive

----------
Listed here: items and their measured growth.
System: CCRF-CEM leukemia
Assay: NCI-60 one-dose screen, 48 h (100 = growth as untreated, 0 = no growth, -100 = all killed)
Conditions: 10 µM unless noted
The panel holds about 83,000 compounds, 20% with a hit somewhere; the sample as a whole holds those more often.
Please respond with the number in % and leave the unit unwritten.

C#CCOc1ccc(/C=N/Nc2nc(-c3ccc(OC)cc3)cs2)cc1 ... 76.1

growth lookup needed for `O=C(CSc1nnc(-c2cccs2)n1-c1ccccc1)Nc1ccccc1` , thanks.
93.7

growth lookup needed for `N#Cc1c(-c2ccc(F)cc2)cc(-c2c[nH]c3ccccc23)nc1-c1c[nH]c2ccccc12` , thanks.
102

growth lookup needed for `CCN(CC)CCOc1ccc(C(=C(c2ccccc2)C2CCCC2)c2ccc(OCCN(CC)CC)cc2)cc1` , thanks.
8.31

growth lookup needed for `COc1cc2cc(Oc3ccc(NC(=O)Nc4ccc(F)c(C(F)(F)F)c4)cc3)c(C)nc2cc1OCCN(C)C` , thanks.
15.8

growth lookup needed for `Oc1[nH]c2ccc(Cl)cc2c1N=Nc1nc(N=Nc2c(O)[nH]c3ccc(Cl)cc23)nc(N2CCCCC2)n1` , thanks.
9.81

----------
Tested on: MCF7 breast
Test: NCI-60 one-dose screen, 48 h (100 = growth as untreated, 0 = no growth, -100 = all killed)
Conditions: 10 µM unless noted
This is part of a sample that, as a whole, favours compounds with a hit. Of some 83,000 tested, about 20% had one in any assay.
growth less than 20% is Met; growth greater than or equal to 20% is Not met.

O=C(CCCCCCN1CC(=O)N2[C@@H](C3CC3)c3[nH]c4ccccc4c3C[C@H]2C1=O)NO ... Not met

Strictly below 20% in growth? `O=C1/C(=C/C=C/c2ccco2)SC(=S)N1Cc1ccccc1`
Not met

Strictly below 20% in growth? `Cc1cc(=O)oc2cc(OCCCOc3ccc(/C=C/C(=O)Nc4ccc(Br)cc4)cc3)ccc12`
Not met

Strictly below 20% in growth? `COc1ccc(C(C)=C(c2ccc(OCCN(C)C)cc2)c2ccc(OCCN(C)C)cc2)cc1`
Met

----------
System: MOLT-4 leukemia
Assay: NCI-60 one-dose screen, 48 h
Conditions: 10 µM unless noted
About 83,000 compounds went through this panel and 20% of them were active in at least one assay; those are over-represented in the sample as a whole. The source made the active and inactive calls. The calls were made as follows: active = growth percent below 10; inactive = the rest.
// allowed return values: active, inactive

Answered examples (2):
Cc1[nH]c(C(=O)Nc2ccc(C(=O)NCC3CCNCC3)cc2OC(C)C)c(Cl)c1Cl ... inactive
CCC(=C(c1ccc(OCCN(C)C)cc1)c1ccc(OCCN(C)C)cc1)c1ccc(Cl)cc1 ... active

Would you mind telling me which call this test gave `O=C(CCCCCCNC(=O)C(O)(O)C(F)(F)F)Nc1ccc(Br)cc1` ?
inactive

Would you mind telling me which call this test gave CN1CC[C@@H]2[C@@]3(C)CC[C@H](O)C(C)(C)[C@@H]3CC[C@@]2(C)[C@]2(C)CC[C@@]3(CO)CCC(C)(C)C[C@@H]3C12 (stereo partly specified) ?
inactive

Would you mind telling me which call this test gave `O=C(CCCCCCN1CC(=O)N2[C@@H](c3cccs3)c3[nH]c4ccccc4c3C[C@H]2C1=O)NO` ?
inactive

----------
Listed here: items and their measured growth.
Tested on: T-47D breast
Assay: NCI-60 one-dose screen, 48 h (100 = growth as untreated, 0 = no growth, -100 = all killed)
Conditions: 10 µM unless noted
Compounds without any hit were thinned out: in the full panel of roughly 83,000, 20% have a hit.
Please respond with the number in % and leave the unit unwritten.

Worked set:
O=C1Nc2ccccc2/C1=N\c1nnc(-c2ccccc2)o1 ... 77.9
O=S(=O)(Oc1ccc(-c2cn3ccsc3n2)cc1)c1cccc(C(F)(F)F)c1 ... 103
COC(=O)[C@@H](Cc1c[nH]c2ccccc12)NC(=O)CCCCOc1cc(O)c2c(=O)cc(-c3ccccc3)oc2c1 ... 59.7
Fc1cc(F)cc(NNC(=S)c2ccccc2)c1 ... -2.7
c1ccc(-c2cn3c(-c4c[nH]c5ccccc45)csc3n2)cc1 ... 31.9

growth lookup needed for `O=C(/C=C/c1cccc(C(F)(F)F)c1)Nc1cccc(C(F)(F)F)c1` , thanks.
-6.89

growth lookup needed for `COc1ccc(-c2c3c(cn2Cc2cccc(OC)c2)-c2oncc2CCC3)cc1` , thanks.
75.7

growth lookup needed for `COc1cc2oc(-c3cccc(NC(=O)c4cccc([N+](=O)[O-])c4)c3)cc(=O)c2c(OC)c1OC` , thanks.
54.3

growth lookup needed for `O=C1Nc2cc(Cl)ccc2/C1=C\c1ccc(OCc2ccccc2)cc1` , thanks.
95.7

growth lookup needed for `C#CCn1cc(/C=N/Nc2nc(-c3ccc(Br)cc3)cs2)c2ccccc21` , thanks.
76.4

growth lookup needed for CCS(=O)(=O)Nc1ccc(C(=O)CC2(O)C(=O)Nc3ccccc32)cc1 (stereo not drawn) , thanks.
89.1

growth lookup needed for `O=S(=O)(NCCCNc1nccc(-c2[nH]c(-c3ccccc3)nc2-c2ccc(F)c(O)c2)n1)c1cccc2ccccc12` , thanks.
51.3

growth lookup needed for `CC(C)(O)c1cncc(-c2ccc3ncc(C#N)c(N4CCc5cc(F)c(Cl)cc54)c3c2)c1` , thanks.
2.88

growth lookup needed for `CC1(C)CC[C@]23CC[C@]4(C)[C@H](CC[C@@H]5[C@@]6(C)CC[C@H](N)C(C)(C)[C@@H]6CC[C@]54C)[C@H]2[C@H]1OC3` , thanks.
88.1

growth lookup needed for `O=C(CSc1nc2ccccc2c(=O)n1-c1ccccc1)N/N=C/c1ccc(Oc2ccc(Cl)cc2)cc1` , thanks.
82.5

growth lookup needed for `COc1ccc2c(c1)c(-c1nn3cc(-c4ccncc4)nc3s1)cn2C` , thanks.
42.4

growth lookup needed for `Cn1cc(-c2nnc(N)nc2-c2c[nH]c3ccc(Br)cc23)c2cc(Br)ccc21` , thanks.
88

growth lookup needed for `O=C1C(N2CCN(c3ccccc3)CC2)=C(Cl)C(=O)c2ncccc21` , thanks.
-54.2

growth lookup needed for COc1ccc(C2CC(c3cccc(OCCCCOc4cccc(C5=NN(C(C)=O)C(c6ccc(OC)cc6)C5)c4)c3)=NN2C(C)=O)cc1 (stereo not drawn) , thanks.
40.1

growth lookup needed for CCCCN1C(=O)/C(=c2\sc3n(c2=O)C2C(NN=3)N(CC)C(=O)N2CC)c2cccc(C)c21 (stereo not drawn) , thanks.
41.4

growth lookup needed for `CC1(C)C=Cc2cc(/C(N)=N/C(N)=N/c3nc4ccccc4s3)ccc2O1` , thanks.
77.6

growth lookup needed for `CCNCCOc1ccc(/C(=C(/CC)c2ccc(Cl)cc2)c2ccc(OCCCN(C)C)cc2)cc1` , thanks.
-60.2

growth lookup needed for `CC(C)NC(=O)c1cc(-c2ccc(NC(=O)Nc3ccc(F)cc3)cc2)nc2cccnc12` , thanks.
97.8
